# procedureText: amyloid nucleation score (Sup35N fusion, yeast selection) (log enrichment); library NNK3; higher = more nucleation; inactive = no reads after selection;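 note: zero at mode of non-aggregating sequences after 7 days selection at 30°C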
assayReadout: amyloid nucleation score

- SAVKWC: inactive
- FVVVHLSVKSIVPAFVSWDR: -0.36
- YESHLSRRLLIMYIGAFLGR: inactive
- VRIMCMSWIVVWHYMC: inactive
- SWSTSNVVLNL: 1.99
- WAGLHRVRFES: -0.26
- SPRNMWI: inactive
- CECVGFRSRYM: 0.038
- SLYRSEVMVHAVVVYVYFGK: inactive
- GMAVVLSLAPAGRKRTTTNV: inactive
- WTYTKVWIWS: inactive
- TWTDCERRLDIVKEMLNYIQ: inactive
- VLGYYAKGDRSSWSRGYSY: 0.194
- LLDENGGHYSSIRAISDGGI: inactive
- ILLALN: 0.03
- RVQIKVDGVSVHTDFSDWRS: 1.8
- IILRTWVSTLQSNSAIEVTL: inactive
- SLDLALNMFFFLYAGSNFFF: inactive
